molecular target: T1, recombinant human 4R0N tau (human, UniProt P10636 2-758); experiment: SPR Biacore T200; antibody captured by anti-human Fc; tau as analyte; global 1:1 fit
T1 construct: also called recombinant 4R0N human tau; P10636-6
T1 sequence (P10636 other isoform, or with tags, fused parts or gaps limits assumed): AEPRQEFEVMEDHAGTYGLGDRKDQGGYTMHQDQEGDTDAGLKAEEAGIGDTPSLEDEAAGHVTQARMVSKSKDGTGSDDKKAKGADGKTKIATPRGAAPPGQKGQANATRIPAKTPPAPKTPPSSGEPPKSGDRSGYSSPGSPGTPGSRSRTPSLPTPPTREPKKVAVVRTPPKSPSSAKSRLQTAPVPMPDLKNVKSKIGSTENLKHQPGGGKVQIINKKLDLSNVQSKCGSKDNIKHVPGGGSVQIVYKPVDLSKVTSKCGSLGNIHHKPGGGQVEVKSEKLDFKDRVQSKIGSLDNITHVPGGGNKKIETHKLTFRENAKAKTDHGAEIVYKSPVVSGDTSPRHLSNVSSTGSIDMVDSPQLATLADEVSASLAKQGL
# log10 koff annotations
// units: s⁻¹ (pre-log); metric: koff; scale: log10

Below: 4 binders and their reported log10 koff.
[
  {
    "Binder": "hu9F5VHv9/hu9F5VLv8_DIM14 (antibody, V domains shown) VH: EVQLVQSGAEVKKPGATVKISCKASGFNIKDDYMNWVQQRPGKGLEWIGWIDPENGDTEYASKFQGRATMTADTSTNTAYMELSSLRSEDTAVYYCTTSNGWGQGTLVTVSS VL: DIQMTQSPFSLPVTPGESASISCRSSKSLGHSNGITYLYWYGQKPGQSPQLLIYQGSNTASGVPNRFSSSGSGTDFTLKISRVEAEDVGVYYCAQNIELPLTFGQGTKLEIK",
    "log10 koff": -3.73
  },
  {
    "Binder": "hu9F5VHv10/hu9F5VLv9_DIM4 (antibody, V domains shown) VH: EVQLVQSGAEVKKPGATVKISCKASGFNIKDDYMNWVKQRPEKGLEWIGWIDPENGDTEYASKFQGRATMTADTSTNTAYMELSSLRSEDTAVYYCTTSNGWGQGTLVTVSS VL: DIQMTQSPFSLPVTPGESASISCRSSKSLSHSNGITYLYWYQQKPGQSPQLLIYQGSNRASGVPDRFSSSGSGTDFTLKISRVEAEDVGVYYCAQNGELPLTFGQGTKLEIK",
    "log10 koff": -2.36
  },
  {
    "Binder": "hu9F5VHv10/hu9F5VLv9_DIM1 (antibody, V domains shown) VH: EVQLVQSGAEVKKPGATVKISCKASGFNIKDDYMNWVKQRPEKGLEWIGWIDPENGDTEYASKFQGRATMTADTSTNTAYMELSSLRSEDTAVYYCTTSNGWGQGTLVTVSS VL: DIQMTQSPFSLPVTPGESASISCRSSKSLSHSNGITYLYWYQQKPGQSPQLLIYQGSNGASGVPDRFSSSGSGTDFTLKISRVEAEDVGVYYCAQNIELPLTFGQGTKLEIK",
    "log10 koff": -2.40
  },
  {
    "Binder": "hu9F5VHv9/hu9F5VLv8_DIM28 (antibody, V domains shown) VH: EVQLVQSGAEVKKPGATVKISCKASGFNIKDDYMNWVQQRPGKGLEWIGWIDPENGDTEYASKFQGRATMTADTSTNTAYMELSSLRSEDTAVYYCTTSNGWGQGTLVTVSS VL: DIQMTQSPFSLPVTPGESASISCRSSKSLSHSNGITYLYWYLQKPGQSPQLLIYQGSNRASGVPNRFSSSGSGTDFTLKISRVEAEDVGVYYCAQNIELPLTFGQGTKLEIK",
    "log10 koff": -3.66
  }
]

# get_value(readout='log10 koff', item= hu9F5VHv10/hu9F5VLv9_DIM8 (antibody, V domains shown) VH: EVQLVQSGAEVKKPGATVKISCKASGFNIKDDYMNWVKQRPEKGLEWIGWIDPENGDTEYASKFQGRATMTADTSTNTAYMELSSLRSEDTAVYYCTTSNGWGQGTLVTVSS VL: DIQMTQSPFSLPVTPGESASISCRSSKSLGHSNGITYLYWYQQKPGQSPQLLIYQKSNRASGVPDRFSSSGSGTDFTLKISRVEAEDVGVYYCAQNIELPLTFGQGTKLEIK )
-2.63

# get_value(readout='log10 koff', item= hu9F5VHv10/hu9F5VLv9_DIM5 (antibody, V domains shown) VH: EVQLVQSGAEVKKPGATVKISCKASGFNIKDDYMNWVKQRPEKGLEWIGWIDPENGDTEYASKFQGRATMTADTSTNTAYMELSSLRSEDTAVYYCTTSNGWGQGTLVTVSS VL: DIQMTQSPFSLPVTPGESASISCRSSKSLGHSNGITYLYWYQQKPGQSPQLLIYQGSNRASGVPDRFSSSGSGTDFTLKISRVEAEDVGVYYCAQNIELPLTFGQGTKLEIK )
-3.04

# get_value(readout='log10 koff', item= hu9F5VHv10/hu9F5VLv9_DIM10 (antibody, V domains shown) VH: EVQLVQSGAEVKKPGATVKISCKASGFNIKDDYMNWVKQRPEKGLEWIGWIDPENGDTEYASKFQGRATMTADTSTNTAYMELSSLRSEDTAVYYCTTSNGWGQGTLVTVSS VL: DIQMTQSPFSLPVTPGESASISCRSSKSLSHSNGITYLYWYQQKPGQSPQLLIYQKSNGASGVPDRFSSSGSGTDFTLKISRVEAEDVGVYYCAQNIELPLTFGQGTKLEIK )
-1.59

# get_value(readout='log10 koff', item= hu9F5VHv10/hu9F5VLv9_DIM20 (antibody, V domains shown) VH: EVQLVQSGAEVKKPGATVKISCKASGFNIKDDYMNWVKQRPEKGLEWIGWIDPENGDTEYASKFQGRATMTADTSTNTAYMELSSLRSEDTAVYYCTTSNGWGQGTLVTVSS VL: DIQMTQSPFSLPVTPGESASISCRSSKSLSHSNGITYLYWYQQKPGQSPQLLIYQISNGASGVPDRFSSSGSGTDFTLKISRVEAEDVGVYYCAQNIELPLTFGQGTKLEIK )
-1.48

# get_value(readout='log10 koff', item= hu9F5VHv9/hu9F5VLv8_DIM4 (antibody, V domains shown) VH: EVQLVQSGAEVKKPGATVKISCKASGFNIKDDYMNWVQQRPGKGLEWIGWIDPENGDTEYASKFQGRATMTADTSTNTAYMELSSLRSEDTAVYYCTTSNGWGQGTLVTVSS VL: DIQMTQSPFSLPVTPGESASISCRSSKSLSHSNGITYLYWYQQKPGQSPQLLIYQGSNRASGVPNRFSSSGSGTDFTLKISRVEAEDVGVYYCAQNGELPLTFGQGTKLEIK )
-2.84

# get_value(readout='log10 koff', item= hu9F5VHv9/hu9F5VLv8_DIM18 (antibody, V domains shown) VH: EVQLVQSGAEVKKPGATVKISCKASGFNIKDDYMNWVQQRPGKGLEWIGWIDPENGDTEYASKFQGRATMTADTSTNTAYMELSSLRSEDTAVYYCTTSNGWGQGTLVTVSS VL: DIQMTQSPFSLPVTPGESASISCRSSKSLDHSNGITYLYWYGQKPGQSPQLLIYQGSNRASGVPNRFSSSGSGTDFTLKISRVEAEDVGVYYCAQNIELPLTFGQGTKLEIK )
-4.03
